Measured values drawn from patent US7829589B2 for this set.

test: Preliminary PK studies (IV/PO), oral bioavailability and brain/plasma ratio; assay type: in vivo; details: mouse; oral bioavailability, plasma AUC PO vs IV; male diet-induced obese C57bl/6 mice
measurement_label: bioavailability (%)
Give bare numbers, in %.

| smiles_record | unit_abbrev | bioavailability |
| --- | --- | --- |
| CCN(CC)CCCS(=O)(=O)N[C@H](CCc1ccccc1)c1nc(Cc2ccc(Br)cc2)no1 | % | 10.2 |

Attention now turns to another entry.
Measured bioavailability, "CCN(CC)CCCS(=O)(=O)N[C@H](CCc1ccccc1)c1nc(-c2ccc(OC)cc2)n[nH]1" : 63.2

----------
molecular target: GHS-R (Homo sapiens); assay: GHS-R antagonist activity (Ki) in a cell based assay
pKi: −log10 of the molar value.
measurement_label: pKi

As a guide, the following entries are already answered.
| smiles_record | pKi |
| --- | --- |
| CCN(CC)CCCS(=O)(=O)N[C@H](CCc1ccccc1)c1nc(-c2ccc(F)cc2)no1 | > 7.00 |
| CCN(CC)CCCS(=O)(=O)N[C@H](CCc1ccccc1)c1nc(Cc2ccc(Cl)cc2)n[nH]1 | > 7.00 |
| CCN(CC)CCCS(=O)(=O)N[C@@H](CCc1ccccc1)c1nc(-c2ccccc2C)no1 | 6.30 to 7.00 |
| CCN(CC)CCCS(=O)(=O)N[C@H](CCc1ccccc1)c1nc(Cc2ccccn2)no1 | 6.30 to 7.00 |
| CCN(CC)CCCS(=O)(=O)N[C@H](CCc1ccccc1)c1nc(CCc2ccc(Br)cc2)no1 | > 7.00 |

Respectfully, I request pKi for each entry included below.
1. CCN(CC)CCCS(=O)(=O)N[C@H](CCc1ccccc1)c1nc(-c2ccc3[nH]ccc3c2)n[nH]1
2. CCN(CC)CCCS(=O)(=O)N[C@H](CCc1ccccc1)c1nc(-c2ccc(Cl)cc2)n[nH]1
3. CCN(CC)CCCS(=O)(=O)N[C@H](CCc1ccccc1)c1nc(Cn2nnc3ccccc32)n[nH]1

result:
1. > 7.00
2. > 7.00
3. > 7.00

Respectfully, I request pKi for each entry included below.
1. CCN(CC)CCCS(=O)(=O)N[C@H](CCc1ccccc1)c1nc(Cc2ccc(OC)c(OC)c2)n[nH]1
2. CCN(CC)CCCS(=O)(=O)N[C@H](CCc1ccccc1)c1nc(-c2ccc(C#N)c(Cl)c2)n[nH]1
3. CCN(CC)CCCS(=O)(=O)N[C@H](CCc1ccccc1)c1nc(-c2ccccc2F)n[nH]1
4. CCN(CC)CCCS(=O)(=O)N[C@H](COCc1ccccc1)c1nc(-c2ccccc2)no1
5. CCN(CC)CCCS(=O)(=O)N[C@H](CCc1ccccc1)c1nc(-c2ccc3occc3c2)n[nH]1
6. CCN(CC)CCCS(=O)(=O)N[C@H](CCc1ccccc1)c1nc(-c2ccc(F)c(C#N)c2)n[nH]1
7. CCN(CC)CCCS(=O)(=O)N[C@H](CCc1ccccc1)c1nc(-c2ccccc2Cl)no1

result:
1: > 7.00; 2: > 7.00; 3: > 7.00; 4: 6.00 to 6.30; 5: > 7.00; 6: > 7.00; 7: 6.30 to 7.00

----------
molecular target: GHS-R (Homo sapiens, UniProt Q92847); test: GHS-R antagonist activity (Ki) in a cell based assay
Sequence (Q92847 whole entry, species assumed): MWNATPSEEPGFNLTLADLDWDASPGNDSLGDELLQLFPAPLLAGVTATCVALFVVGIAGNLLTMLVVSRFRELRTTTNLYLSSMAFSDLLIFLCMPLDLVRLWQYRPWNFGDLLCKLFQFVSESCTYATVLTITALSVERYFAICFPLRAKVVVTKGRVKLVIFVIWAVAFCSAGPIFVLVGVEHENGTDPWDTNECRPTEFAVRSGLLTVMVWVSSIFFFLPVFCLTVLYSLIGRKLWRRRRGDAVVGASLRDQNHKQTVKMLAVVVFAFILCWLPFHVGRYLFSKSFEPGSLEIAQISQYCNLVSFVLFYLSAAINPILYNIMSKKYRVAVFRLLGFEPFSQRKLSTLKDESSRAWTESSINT
measurement_label: Ki

As a guide, the following entries are already answered.
| smiles_record | tested_target | measurement_label | recorded_measurement |
| --- | --- | --- | --- |
| CCN(CC)CCCS(=O)(=O)N[C@H](CCc1ccccc1)c1nc(Cc2ccc3c(c2)OCO3)n[nH]1 | GHS-R (Homo sapiens, UniProt Q92847) | Ki | < 100 nM |
| CCN(CC)CCCS(=O)(=O)N[C@H](CCc1ccccc1)c1nc(COc2ccccc2)no1 | GHS-R (Homo sapiens, UniProt Q92847) | Ki | < 100 nM |
| CCN(CC)CCCS(=O)(=O)N[C@H](CCc1ccccc1)c1nc(-c2ccc(OC)cc2)no1 | GHS-R (Homo sapiens, UniProt Q92847) | Ki | < 100 nM |
| CCN(CC)CCCS(=O)(=O)N[C@H](CCc1ccccc1)c1nc(Cc2ccc(C(F)(F)F)cc2)no1 | GHS-R (Homo sapiens, UniProt Q92847) | Ki | < 100 nM |

Respectfully, I request Ki for each entry included below.
1. CCN(CC)CCCS(=O)(=O)N[C@H](CCc1ccccc1)c1nc(-c2cccnc2Cl)no1
2. CCN(CC)CCCS(=O)(=O)N[C@H](CCc1ccccc1)c1nc(-c2ccc(OC)c(OC)c2)n[nH]1
3. CCN(CC)CCS(=O)(=O)N[C@H](CCc1ccccc1)c1nc(-c2ccc(Br)cc2)no1

result:
1. < 100 nM
2. 100 to 500 nM
3. 100 to 500 nM
